pIC50 values by entry
Biological target: HLA-C1402 (Homo sapiens, UniProt P10321, A176E/A330V/A35S/A97T/C350S/D114A/D33S/L171W/L180R/L218V/M285V/M309V/M331V/P208H/Q277E/Q291P/R121W/R243W/S123F/S297R/S48A/T329A/T363A/V319A)
Assay: Competitive peptide binding assay, CIR-C1402
Conditions: HMy2.CIR-C1402 cells, reference Cy5-[…], class from inhibition at 5 and 15 μM, flow cytometry MFI; read-out: Binding affinity with HLA-C1402
pIC50: −log10 of the molar value. Peptide text beside a SMILES is read from it.

Exam item: Bench note: what pIC50 did CC[C@H](C)[C@H](NC(=O)[C@@H]1CCCN1C(=O)[C@H](CCSC)NC(=O)[C@H](CC(C)C)NC(=O)[C@H](CC(C)C)NC(=O)[C@H](CO)NC(=O)[C@H](Cc1ccc(O)cc1)NC(=O)[C@@H](N)Cc1ccc(O)cc1)C(=O)N[C@@H](CC(C)C)C(=O)O [Epitope M95] show?
Marked response: 4.82 to 5.30

Exam item: Next up: CC(C)C[C@H](NC(=O)[C@H](CC(C)C)NC(=O)[C@H](Cc1ccccc1)NC(=O)[C@@H](NC(=O)[C@H](CCCNC(=N)N)NC(=O)[C@@H]1CCCN1C(=O)[C@H](CCC(N)=O)NC(=O)[C@H](CC(C)C)NC(=O)[C@@H](N)Cc1ccc(O)cc1)[C@@H](C)O)C(=O)O [Epitope M35] (H-YLQPRTFLL-OH; N-terminus and C-terminus assumed)
Marked response: 4.82 to 5.30

Exam item: # repeat for CC(C)C[C@H](NC(=O)[C@H](CC(C)C)NC(=O)[C@H](Cc1ccccc1)NC(=O)[C@@H](NC(=O)[C@@H](NC(=O)[C@H](Cc1ccccc1)NC(=O)[C@H](C)NC(=O)[C@H](CC(C)C)NC(=O)[C@@H](N)Cc1ccccc1)C(C)C)C(C)C)C(=O)O [Epitope M76] (H-FLAFVVFLL-OH; N-terminus and C-terminus assumed)
Marked response: < 4.82

###

Biological target: HLA-B4001 (Homo sapiens, UniProt P01889, A65T/A93T/A95T/D138N/D98Y/E176V/E69K/N87E/Q56L/Q94N/R180L/S121R/S35A/S48T/T167S/V36M/W171L/Y33H/Y91S)
Assay: Competitive peptide binding assay, CIR-B4001
Conditions: HMy2.CIR-B4001 cells, reference Cy5-[…], class from inhibition at 5 and 15 μM, flow cytometry MFI; read-out: Binding affinity with HLA-B4001
pIC50: −log10 of the molar value. Peptide text beside a SMILES is read from it.
// values below are reported pIC50

>  <COMPOUND>
C[C@H](NC(=O)CNC(=O)[C@H](C)NC(=O)[C@@H](NC(=O)[C@@H](N)Cc1c[nH]c2ccccc12)[C@@H](C)O)C(=O)N[C@@H](C)C(=O)N[C@@H](C)C(=O)N[C@@H](Cc1ccc(O)cc1)C(=O)N[C@@H](Cc1ccc(O)cc1)C(=O)O [Epitope Y174] (H-WTAGAAAYY-OH; N-terminus and C-terminus assumed)

>  <EXPERIMENTAL_RESULT>
< 4.82

$$$$

We now examine a further compound.
Exam item: Quick check: pIC50 of CC[C@H](C)[C@H](NC(=O)[C@@H](NC(=O)[C@H](CC(C)C)NC(=O)[C@H](CC(N)=O)NC(=O)[C@H](Cc1c[nH]c2ccccc12)NC(=O)[C@H](CCC(N)=O)NC(=O)[C@H](CCC(=O)O)NC(=O)[C@@H](N)CC(C)C)C(C)C)C(=O)NCC(=O)O [Epitope Y215] (H-LEQWNLVIG-OH; N-terminus and C-terminus assumed) ?
Marked response: 4.82 to 5.30
